measured target: Hypoxia inducible factors; HIF-1-alpha, HIF-2-alpha (Homo sapiens, UniProt Q16665+Q99814)
assay summary: Inhibition of hypoxia-induced HIF1 activation in human T47D cells by pTK-HRE3-luciferase reporter gene assay
Format: cell-based
Quick reference for IC50 among some molecules
Entry rule: numbers only, all in µM.

Solved entries:
In [3]: df
Out[3]:
                                   molecule  recorded_value
0  CC(C)CCCCCCCCC/C=C\CCc1ccc(C=O)[nH]1 [MYCALAZAL 16]              20
1  N#CCCCCCCCCCCCCCCCCCc1ccc(C=O)[nH]1 [MYCALENITRILE 1]              10
2  CC/C=C\C/C=C\C/C=C\CCCCCCCCCc1ccc(C=O)[nH]1 [MYCALAZAL 20]              20

Data request: Please report the recorded IC50 for N#CCCCCCCCCCCCCCCCc1ccc(C=O)[nH]1 [MYCALENITRILE 13] .
Data returned: 10

Data request: And what about the molecule N#CCCCC/C=C\C/C=C\CCCCCCCCCCCCCCc1ccc(C=O)[nH]1 [MYCALENITRILE 5] ?
Data returned: 10

Data request: And what about the molecule CC(C)CCCCC/C=C\CCCCCCc1ccc(C=O)[nH]1 [MYCALAZAL 17] ?
Data returned: 20

Data request: And what about the molecule CC/C=C\C/C=C\C/C=C\CCCCCCCCCCCc1ccc(C=O)[nH]1 [MYCALAZAL 3] ?
Data returned: 20

Data request: And what about the molecule CCCCCCCCCCCCCCc1ccc(C=O)[nH]1 [MYCALAZAL 14] ?
Data returned: 20

Data request: And what about the molecule CC(C)CCCCCCCCCCCCc1ccc(C=O)[nH]1 ?
Data returned: 20

Data request: And what about the molecule N#CCCCC/C=C\C/C=C\CCCCCCCCCCCCc1ccc(C=O)[nH]1 [MYCALENITRILE 7] ?
Data returned: 8.6

Data request: And what about the molecule N#CCCCC/C=C\C/C=C\CCCCCCCCCCc1ccc(C=O)[nH]1 [Mycalenitrile-6] ?
Data returned: 7.8

Data request: And what about the molecule CCC/C=C\C/C=C\CCCCCCCCCc1ccc(C=O)[nH]1 [MYCALAZAL 18] ?
Data returned: 20

Data request: And what about the molecule N#CCCCCCC/C=C\CCCCCCCCCCCc1ccc(C=O)[nH]1 [MYCALENITRILE 8] ?
Data returned: 10
